# Assay target: PPAR-α (Homo sapiens, UniProt Q07869)
# Construct: expressed in transfected cells; host or cells: CV-1 (African green monkey kidney)
# Sequence (Q07869 167-468): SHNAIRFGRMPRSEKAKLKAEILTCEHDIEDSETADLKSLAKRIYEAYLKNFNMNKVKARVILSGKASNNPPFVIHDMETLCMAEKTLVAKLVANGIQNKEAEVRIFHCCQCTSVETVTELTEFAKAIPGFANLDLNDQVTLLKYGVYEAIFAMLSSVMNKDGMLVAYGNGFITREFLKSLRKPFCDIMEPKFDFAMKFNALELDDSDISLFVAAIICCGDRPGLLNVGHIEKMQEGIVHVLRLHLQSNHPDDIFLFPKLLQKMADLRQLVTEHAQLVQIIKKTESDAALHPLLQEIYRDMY
# Assay comment: PPAR-α reporter assay (GAL4 luciferase, CV-1 cells)
# Assay type: cell-based
# Reported conditions: induction ratio of luciferase activity at 50 μM, activity without tested compound = 1, hGR-GAL4-hPPAR-α
Quantity measured: PPAR-α induction ratio

See these solved cases before continuing.
CCCCCCCCCCCC(=O)NC(C)(C)C(=O)O
32.0
CCCCCCCCCCCC(=O)N[C@@H](Cc1csc2ccccc12)C(=O)O
3.0
CCCCCCCCCCCCCCCC(=O)N[C@H](C(=O)O)C(C)C
29.0
CCCCCCCCCCCC(=O)N[C@H](C(=O)O)C1CCCCC1
2.3
CCCCCCCCCCCC(=O)N[C@H](C(=O)O)[C@@H](C)CC
51.0

(a) CCCCCCCCCCCCCCCC(=O)N[C@@H](CC(C)C)C(=O)O
(b) CCCCCCCCCCCC(=O)N[C@@H](CCSC)C(=O)O
(c) CCCCCCCCCCCCCCCCCCCCCC(=O)N[C@H](C(=O)O)C(C)C
(d) CCCCCCCCCCCC(=O)NC(C(N)=O)C(C)C (racemic)
// query Ordering criterion: PPAR-α induction ratio; begin with the maximum. Show the ranking through the labels, in the order asked for.
// result d, b, a, c

(P) CCCCCCCCCCCC(=O)N[C@H](C(=O)O)c1ccccc1
(Q) C=CCCCCCCCCC(=O)N[C@H](C(=O)O)C(C)C
(R) CCCCCCCCCC(=O)N[C@H](C(=O)O)[C@@H](C)CC
// query Ordering: ascending PPAR-α induction ratio. Show the ranking through the labels, in the order asked for.
// result R, P, Q

(A) CCCCCCCCCCCC(=O)N[C@@H](Cc1ccc(Cl)cc1)C(=O)O
(B) CCCCCCCCCC(=O)N[C@@H](CC(C)C)C(=O)O
// query Given A and B , report the one with the higher recorded PPAR-α induction ratio. Which one? Tell me its label.
// result A

(a) CCCCCCCCCCCC(=O)N[C@H](C(=O)O)[C@H](C)CC
(b) CCCCCCCCCCCC(=O)N[C@H](C(=O)O)C(C)(C)C
// query Given a and b , report the one with the higher recorded PPAR-α induction ratio. Which one? Tell me its label.
// result b
(b: 81.0, a: 54.7)

---

# Assay target: PPAR-α (Homo sapiens)
# Construct: expressed in transfected cells; host or cells: CV-1 (African green monkey kidney)
# Assay comment: PPAR-α reporter assay (GAL4 luciferase, CV-1 cells)
# Type: cell-based
# Reported conditions: induction ratio of luciferase activity at 50 μM, activity without tested compound = 1, hGR-GAL4-hPPAR-α
Quantity measured: PPAR-α induction ratio

See these solved cases before continuing.
CCCCCCCCCCCC(=O)NC1(C(=O)O)CCCCCC1
6.2
CCCCCCCCCCC(=O)N[C@@H](CC(C)C)C(=O)O
3.0

(a) CCCCCCCCCCCCCC(=O)N[C@H](C(=O)O)[C@@H](C)CC
(b) CCCCCCCCC(=O)N[C@H](C(=O)O)C(C)C
// query Given a and b , report the one with the higher recorded PPAR-α induction ratio. Which one? Tell me its label.
// result a
(a: 50.0, b: 3.1)

(1) CCCCCCCCCC(=O)N[C@H](C(=O)O)C(C)C
(2) CCCCCCCCC(=O)N[C@@H](CC(C)C)C(=O)O
// query Given 1 and 2 , report the one with the higher recorded PPAR-α induction ratio. Which one? Tell me its label.
// result 1
(1: 19.0, 2: 0.9)

---

# Assay target: PPAR-γ (Homo sapiens)
# Construct: expressed in transfected cells; host or cells: CV-1 (African green monkey kidney)
# Assay comment: PPAR-γ reporter assay (GAL4 luciferase, CV-1 cells)
# Assay type: cell-based
# Reported conditions: induction ratio of luciferase activity at 25 μM, activity without tested compound = 1, hGR-GAL4-hPPAR-γ
Quantity measured: PPAR-γ induction ratio

CCCCCCCCCCCC(=O)N[C@@H](Cc1csc2ccccc12)C(=O)O
2.2
CCCCCCCCCCCCCC(=O)N[C@@H](CC(C)C)C(=O)O
21.0
CCCCCCCCCCCCCCCCCC(=O)N[C@@H](CC(C)C)C(=O)O
12.3

(P) CCCCCCCCCCCC(=O)N[C@H](C(=O)O)[C@H](C)CC
(Q) CCCCCCCCCCCC(=O)N[C@@H](Cc1ccc(Cl)cc1)C(=O)O
// query Which entry shows the lesser value of PPAR-γ induction ratio here, P or Q ? Which one? Tell me its label.
// result Q
(Q: 6.6, P: 21.1)

---

# Assay target: PPAR-γ (Homo sapiens, UniProt P37231)
# Construct: expressed in transfected cells; host or cells: CV-1 (African green monkey kidney)
# Assay comment: PPAR-γ reporter assay (GAL4 luciferase, CV-1 cells)
# Type: cell-based
# Reported conditions: induction ratio of luciferase activity at 25 μM, activity without tested compound = 1, hGR-GAL4-hPPAR-γ
Quantity measured: PPAR-γ induction ratio

CCCCCCCCCCCC(=O)NC(C)C(=O)O (racemic)
15.4

(A) CCCCCCCCCCCC(=O)N[C@H](C(=O)O)[C@@H](C)CC
(B) CCCCCCCCCCCCCCCC(=O)N[C@@H](CC(C)C)C(=O)O
// query Which entry shows the lesser value of PPAR-γ induction ratio here, A or B ? Which one? Tell me its label.
// result B

---

# Assay target: PPAR-γ (Homo sapiens)
# Construct: expressed in transfected cells; host or cells: CV-1 (African green monkey kidney)
# Sequence (P37231 204-505): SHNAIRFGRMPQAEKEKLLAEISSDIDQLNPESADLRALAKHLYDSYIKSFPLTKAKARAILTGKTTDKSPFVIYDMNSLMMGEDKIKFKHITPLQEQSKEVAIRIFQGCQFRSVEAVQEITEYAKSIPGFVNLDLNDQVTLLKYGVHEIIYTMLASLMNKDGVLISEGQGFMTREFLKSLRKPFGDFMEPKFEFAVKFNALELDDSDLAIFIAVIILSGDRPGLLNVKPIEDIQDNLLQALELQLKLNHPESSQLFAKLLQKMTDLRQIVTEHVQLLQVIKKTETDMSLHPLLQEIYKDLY
# Assay comment: PPAR-γ reporter assay (GAL4 luciferase, CV-1 cells)
# Type: cell-based
# Reported conditions: induction ratio of luciferase activity at 25 μM, activity without tested compound = 1, hGR-GAL4-hPPAR-γ
Quantity measured: PPAR-γ induction ratio

See these solved cases before continuing.
CCCCCCCCC(=O)N[C@H](C(=O)O)C(C)C
12.9
CCCCCCCCCC(=O)N[C@@H](CC(C)C)C(=O)O
9.5
CCCCCCCCCCCC(=O)N[C@H](C(=O)O)C(C)(C)C
30.2
CCCCCCCCCCCC(=O)N[C@@H](CC(C)C)C(=O)O
9.7
CCCCCCCCCCCCCCCCCCCCCC(=O)N[C@H](C(=O)O)C(C)C
4.4
CCCCCCCC(=O)N[C@H](C(=O)O)C(C)C
11.9
CCCCCCCCCCCC(=O)N(CC)[C@H](C(=O)O)C(C)C
16.4
CCCCCCCCCCC(=O)N[C@@H](CC(C)C)C(=O)O
11.6

(I) CCCCCCCCCC(=O)N[C@H](C(=O)O)C(C)(C)C
(II) CCCCCCCCCC(=O)N[C@H](C(=O)O)C(C)C
// query Which entry shows the lesser value of PPAR-γ induction ratio here, I or II ? Which one? Tell me its label.
// result I
(I: 15.2, II: 25.4)

---

# Assay target: PPAR-γ (Homo sapiens)
# Construct: expressed in transfected cells; host or cells: CV-1 (African green monkey kidney)
# Sequence (P37231 204-505): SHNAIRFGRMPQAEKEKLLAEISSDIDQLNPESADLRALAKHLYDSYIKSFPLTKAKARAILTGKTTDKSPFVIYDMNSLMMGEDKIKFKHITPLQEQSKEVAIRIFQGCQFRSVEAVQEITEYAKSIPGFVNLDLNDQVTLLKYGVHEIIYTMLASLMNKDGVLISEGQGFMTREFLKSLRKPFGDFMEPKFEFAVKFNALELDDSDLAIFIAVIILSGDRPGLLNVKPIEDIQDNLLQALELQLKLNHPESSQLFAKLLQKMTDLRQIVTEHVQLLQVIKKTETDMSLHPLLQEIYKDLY
# Assay comment: PPAR-γ reporter assay (GAL4 luciferase, CV-1 cells)
# Format: cell-based
# Reported conditions: induction ratio of luciferase activity at 25 μM, activity without tested compound = 1, hGR-GAL4-hPPAR-γ
Quantity measured: PPAR-γ induction ratio

CCCCCCCCCCCCCCCC(=O)N[C@H](C(=O)O)C(C)C [Example 28]
17.1
CCCCCCCCCCCC(=O)NC(Cc1ccccc1C)C(=O)O (racemic) [Example 38]
3.2

(P) CCCCCCCCC(=O)N[C@@H](CC(C)C)C(=O)O [Example 3]
(Q) CCCCCCCCCCC(=O)N[C@@H](Cc1ccccc1)C(=O)O [Example 12]
// query Which entry shows the lesser value of PPAR-γ induction ratio here, P or Q ? Which one? Tell me its label.
// result Q
(Q: 4.2, P: 6.1)

(1) CCCCCCCCCCCC(=O)NC(C)(Cc1ccccc1)C(=O)O (racemic) [Example 41]
(2) CCCCCCCCCCCC(=O)N[C@H](C(=O)O)C(C)C [Example 20, N-lauroyl-L-valine]
// query Given 1 and 2 , report the one with the higher recorded PPAR-γ induction ratio. Which one? Tell me its label.
// result 2
(2: 19.1, 1: 5.1)
